- test details: AUC in Sprague-Dawley rat at 2 mg/kg, po compound dosed in 1% Tween 80/99% OraPlus
- Assay type: ADME, organism-based
- Parameters: dose 2 mg/kg, route oral
- run conditions: plasma
observed property: AUC (µM·h)

> print(dat)
                         chemical.structure  observed.property  readout.number
1  COc1cc2nccc(Oc3ccc(NC(=O)c4c(-c5ccccc5)n(C)n(-c5ccccc5)c4=O)nc3)c2cc1OC                AUC            20.2

====

- test details: Oral bioavailability in Sprague-Dawley rat at 2.5 mg/kg compound dosed in 1% Pluronic F68/1% HPMC/15% Captisol/83% H2O with MsOH at pH 2
- Format: ADME, organism-based
- run conditions: in vivo
observed property: bioavailability (%)

> print(dat)
                         chemical.structure  observed.property  value.units  readout.number
1  Cc1ccc(C(=O)c2c(-c3ccccc3)n(C)n(-c3ccccc3)c2=O)c(N)c1-c1ccc2nc(C(F)F)sc2c1    bioavailability            %              76
2  Cc1ccc2cc(-c3c(C)ccc(C(=O)c4c(-c5ccccc5)n(C)n(-c5ccccc5)c4=O)c3N)ccc2n1    bioavailability            %              55
3  Cc1ccc(C(=O)c2c(-c3ccccc3)n(C)n(-c3ccccc3)c2=O)c(N)c1-c1ccc2nc(C(F)(F)F)sc2c1    bioavailability            %              83
4  CNc1ncc2c(Cl)c(-c3c(C)ccc(C(=O)c4c(-c5ccccc5)n(C)n(-c5ccccc5)c4=O)c3N)ccc2n1    bioavailability            %              49
5  Cc1nc(N)c2c(-c3ccc4c(c3)CCN4C(=O)Cc3cc(F)cc(C(F)(F)F)c3)cn(C)c2n1    bioavailability            %              98
6  Cc1ccc(C(=O)c2c(-c3ccccc3)n(C)n(-c3ccccc3)c2=O)c(N)c1-c1ccc2nc(N)sc2c1    bioavailability            %              67
